system: ACHN renal; experiment: NCI-60 one-dose screen, 48 h; conditions: 10 µM unless noted
The panel holds about 83,000 compounds, 20% with a hit somewhere; the sample as a whole holds those more often. Active and inactive are the calls of the source. How the source made its calls: active means growth percent below 10; inactive means the rest.
Classes used: 1 (active), 0 (inactive)

compound: CN1CCN(C(=O)OCc2nc3c(N4CCOCC4)nc(-c4ccccc4)nc3n2C)CC1
assigned-label: 1
//
compound: O=C(Nc1ccc(Cl)cc1)Nc1ccc(Cl)c(Cl)c1
assigned-label: 1
//
compound: OC1(c2ccc(Cl)c(C(F)(F)F)c2)CCN(CCCC(c2ccc(F)cc2)c2ccc(F)cc2)CC1
assigned-label: 1
//
compound: O=C1c2ccccc2C(=O)c2c(NCCN=Cc3ccccc3O)cccc21
assigned-label: 0
//
compound: CC(Oc1ccc(C(=O)NS(=O)(=O)C(C)(C)C)cc1C(F)(F)F)c1ccc(Oc2ccccc2)cn1 (stereo not given)
assigned-label: 0
